Data provenance: paper PMC11012124

Each entry below carries its reported GI50.
- System: A549/ATCC
- experimentSummary: cells
- runParameters: Homo sapiens, A549, 48 h

The examples below pair each entry with its known result.
compound	experimentalSystem	GI50
CN(C)c1nc(NCCNS(=O)(=O)c2ccc(C3=Nc4c(N)nc(N)nc4NC(c4ccccc4)C3)cc2)nc(Nc2ccc(F)cc2)n1 (centres unmarked) [31a]	A549/ATCC	> 100 µM
CN(C)c1nc(NCCNS(=O)(=O)c2ccc(C(=O)/C=C/c3ccc(F)cc3)cc2)nc(N2CCOCC2)n1 [23f]	A549/ATCC	13.7 µM
CN(C)c1nc(NCCNS(=O)(=O)c2ccc(C3=Nc4c(N)nc(N)nc4NC(c4ccc(C(F)(F)F)cc4)C3)cc2)nc(Nc2ccc(F)cc2)n1 (centres unmarked) [31g]	A549/ATCC	55 µM

For the compound CN(C)c1nc(NCCNS(=O)(=O)c2ccc(C(=O)/C=C/c3ccc(F)cc3)cc2)nc(Nc2ccc(F)cc2)n1 [24f] , what GI50 is on record?
3.41 µM

For the compound COc1cc(/C=C/C(=O)c2cc(OC)c(OC)c(OC)c2)ccc1Oc1nc(Nc2ccc(F)cc2)nc(N(C)C)n1 [21d] , what GI50 is on record?
4.49 µM

For the compound COc1cc(/C=C/C(=O)c2ccccc2)ccc1Oc1nc(Nc2ccc(F)cc2)nc(N(C)C)n1 [21a] , what GI50 is on record?
11.7 µM

For the compound COc1cc(/C=C/C(=O)c2ccc(S(=O)(=O)NCCNc3nc(N(C)C)nc(N4CCOCC4)n3)cc2)cc(OC)c1OC [23d] , what GI50 is on record?
3.55 µM

For the compound COc1cc(/C=C/C(=O)c2ccc(S(=O)(=O)NCCNc3nc(Nc4ccc(F)cc4)nc(N(C)C)n3)cc2)cc(OC)c1OC [24d] , what GI50 is on record?
12.2 µM

For the compound COc1cc(/C=C/C(=O)c2cc(OC)c(OC)c(OC)c2)ccc1Oc1nc(NCCO)nc(N2CCOCC2)n1 [20d] , what GI50 is on record?
2.78 µM

For the compound COc1cc(/C=C/C(=O)c2ccc(C)cc2)ccc1Oc1nc(NCCO)nc(N2CCOCC2)n1 [20b] , what GI50 is on record?
9.47 µM

For the compound COc1cc(/C=C/C(=O)c2ccc(C)cc2)ccc1Oc1nc(Nc2ccc(F)cc2)nc(N(C)C)n1 [21b] , what GI50 is on record?
45.8 µM
